Provenance of the data: paper PMC12064818

log10 IC50 by entry:
# tgt: FLuc-C-HiBiT (Photinus pyralis, UniProt P08659)
# Construct: firefly luciferase with C-terminal HiBiT tag, E. coli expressed
# measurement notes: biochemical
# experimental parameters: enzyme activity, 10 uM ATP; read-out: IC50 or SDR50 (mM) / FLuc E
Hi team, quick reminder: these entries are log10 of IC50 (µM).

Solved entries (count: 5):
> print(dat)
                                   compound  result.value
1  CC[S+](=O)([O-])c1cccc(C(=O)Nc2ccc(-c3nc4ccccc4s3)c(O)c2)c1          0.65
2  N#Cc1c(-n2ncnc2-c2ccc(Br)cc2)sc2c1CCCCC2          1.00
3  COc1ccc(-c2cn3nc(N4CCCC(C(=O)NCc5ccccc5OC)C4)sc3n2)cc1 (stereo not drawn)          1.05
4     CN(c1ccccc1)c1ccc2ncn(C3CC3)c(=O)c2n1          0.75
5  CNC(=O)c1cccc(-c2cnc(Nc3ccccc3)c3c2CCO3)c1          1.26

# log10 IC50 lookup, item CCNC(=O)C1C(c2cccc(NC(=O)c3ccc(OC)cc3)c2)OC(=O)N1Cc1ccc(C)cc1 (stereo not drawn)
0.60

Given the entry CCOC(=O)c1ccc(NC2SC(=O)N(Cc3cccc(C(=O)O)c3)C2=O)cc1 (stereo not drawn) , report its measured log10 IC50.
1.09

Quick one: log10 IC50 of O=C(Nc1cccc(-c2ccc(N3CCOCC3)nn2)c1)Nc1cccc(C(F)(F)F)c1 ?
0.69

Name the recorded log10 IC50 for CN(C(=O)OC(C)(C)C)c1ccc(-c2nc3ccccc3s2)cc1 .
-1.00

# get_value(readout='log10 IC50', item= COc1cccc(Nc2ccc(CN3CCC(C)(NC(C)=O)C3)cc2)c1 (stereo not drawn) )
1.31

Given Cc1ccccc1CCNC(=O)c1ccc2c(c1)nc1n2CCOC1 , state its recorded log10 IC50.
0.69

* * *

# tgt: FLuc-C-HiBiT (firefly luciferase) (Photinus pyralis, UniProt P08659, form not given/L550V)
# Sequence (P08659 2-550 L550V, form open): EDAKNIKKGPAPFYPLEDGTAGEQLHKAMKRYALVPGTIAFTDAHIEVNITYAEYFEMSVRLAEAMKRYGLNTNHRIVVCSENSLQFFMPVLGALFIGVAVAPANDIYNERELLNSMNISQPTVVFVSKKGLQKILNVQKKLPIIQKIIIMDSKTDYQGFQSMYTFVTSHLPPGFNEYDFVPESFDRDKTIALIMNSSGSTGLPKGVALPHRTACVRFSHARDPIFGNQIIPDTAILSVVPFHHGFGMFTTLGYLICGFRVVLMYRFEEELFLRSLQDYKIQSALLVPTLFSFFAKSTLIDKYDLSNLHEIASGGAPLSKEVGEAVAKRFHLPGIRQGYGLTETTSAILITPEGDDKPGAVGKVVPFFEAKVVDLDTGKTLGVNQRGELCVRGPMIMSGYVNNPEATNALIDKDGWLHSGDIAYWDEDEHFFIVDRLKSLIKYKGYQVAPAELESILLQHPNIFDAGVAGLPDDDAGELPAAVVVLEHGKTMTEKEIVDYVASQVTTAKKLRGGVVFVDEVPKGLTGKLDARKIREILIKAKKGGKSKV
# measurement notes: SDR assay, FLuc-C-HiBiT
# experimental parameters: 10 nM FLuc-C-HiBiT; normalized activity; Log [Compound], M -8.78
# SDR + 10 mM ATP values compiled below
Simply state the number, no unit and no words.

> print(dat)
                                   compound                                       tgt  measured.attribute  result.value
1  CC1CCCN(c2ncnc3c2cnn3-c2ccccc2)C1 (centres unmarked)  FLuc-C-HiBiT (firefly luciferase) (Photinus pyralis, UniProt P08659, form not given/L550V)     SDR + 10 mM ATP           6.5
2         O=C(O)CCSc1nnc(-c2ccc(Cl)cc2Cl)o1  FLuc-C-HiBiT (firefly luciferase) (Photinus pyralis, UniProt P08659, form not given/L550V)     SDR + 10 mM ATP           7.7

--- query ---
Identify the measured SDR + 10 mM ATP of Fc1ccc(-c2cn3cc(Cc4ccccc4)sc3n2)cc1 for FLuc-C-HiBiT (firefly luciferase) (Photinus pyralis, UniProt P08659, form not given/L550V).
8.8

* * *

# tgt: ABL1-N-HiBiT kinase domain (Homo sapiens)
# measurement notes: SDR assay, ABL1-N-HiBiT
# experimental parameters: read-out: SDR Ave SDR50; ABL1-N-HiBiT qHTS; average; unit inferred
Where a name gives a salt, the structure may show the parent alone.
Label Satisfied when EC50 < 2 µM; otherwise Not satisfied.

> print(dat)
                                   compound   answer.label
1  CCOc1ccn(-c2ccc(F)cc2)c(=O)c1C(=O)Nc1ccc(Oc2ccnc(N)c2Cl)c(F)c1 [BMS-777607]  Not satisfied

is_below(EC50, 2 µM) for COc1cc(N2CCOCC2)ccc1Nc1ncc(Cl)c(Nc2ccccc2NS(C)(=O)=O)n1 [CZC 54252 HCl] ?
Not satisfied

Record N[C@H]1CC[C@H](Nc2nc(Nc3ccc(C(=O)N4CCCCC4)cc3)c3ncn(-c4cccc(F)c4)c3n2)CC1 [Purfalcamine] : is its EC50 strictly below 2 µM?
Satisfied

Criterion: EC50 strictly below 2 µM. Is it met by C#Cc1cccc(Nc2ncnc3cc4c(cc23)OCCOCCOCCO4)c1 [Icotinib HCl] ?
Not satisfied

Lab log: compare recorded EC50 with 2 µM; is it strictly lower for N#Cc1cccc(-c2c[nH]c3ncnc(N4CCOCC4)c23)c1 [PF-06447475] ?
Not satisfied

Is EC50 of c1cc(-c2cc(C3CCNCC3)[nH]n2)ccn1 [ETP 45835 2HCl] strictly below 2 µM?
Not satisfied

* * *

# tgt: FLuc-C-NLuc (firefly luciferase) (Photinus pyralis, UniProt P08659, form not given/L550V)
# measurement notes: SDR assay, FLuc-C-NLuc
# experimental parameters: 1 nM FLuc-C-NLuc; normalized activity; Log [Compound], M -5.91
measured attribute: SDR No ATP
Lab note: jot down the number only; don't add units.

Illustrative cases are given below, each with its answer.
> print(dat)
                                   molecule  result.value
1         O=C(O)CCSc1nnc(-c2ccc(Cl)cc2Cl)o1           4.7
2  CC(CNC(=O)C1CCN(C(=O)c2ncn3c2COC(c2ccccc2)C3)CC1)c1ccccc1 (centres unmarked)          -3.2

Would you mind telling me what SDR No ATP value was observed for Cc1ccc(-n2ncc3c(N4CCCCCC4)ncnc32)cc1 ?
8.8

Dear colleague, I am looking for the recorded SDR No ATP of the following molecule: CNC(=O)c1cccc2c1CCN2C(=O)Nc1ccc(C)cc1
4.5

Query: SDR No ATP; subject: COc1ccc(-c2nc(-c3ccc(C(=O)O)cc3)no2)cc1
6.9

* * *

# tgt: P. pyralis FLuc (Photinus pyralis, UniProt P08659)
# Sequence (P08659 whole entry): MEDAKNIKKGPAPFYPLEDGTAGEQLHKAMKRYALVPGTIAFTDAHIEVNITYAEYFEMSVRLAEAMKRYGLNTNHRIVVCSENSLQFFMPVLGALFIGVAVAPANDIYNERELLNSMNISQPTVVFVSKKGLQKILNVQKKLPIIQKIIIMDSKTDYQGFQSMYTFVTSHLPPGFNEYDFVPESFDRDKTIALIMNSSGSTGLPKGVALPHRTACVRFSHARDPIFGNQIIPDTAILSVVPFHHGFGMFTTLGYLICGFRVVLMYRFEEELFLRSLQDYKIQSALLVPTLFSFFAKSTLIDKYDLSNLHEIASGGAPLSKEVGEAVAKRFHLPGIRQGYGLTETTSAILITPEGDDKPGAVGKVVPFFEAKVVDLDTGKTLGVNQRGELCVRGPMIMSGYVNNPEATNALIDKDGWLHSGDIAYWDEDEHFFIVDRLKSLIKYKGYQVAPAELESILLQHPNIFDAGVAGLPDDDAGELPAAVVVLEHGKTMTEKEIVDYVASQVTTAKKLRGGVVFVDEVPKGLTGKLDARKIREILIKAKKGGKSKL
# measurement notes: FLuc enzymatic luminescence assay, P. pyralis FLuc
# Format: biochemical
# experimental parameters: FLuc enzymatic assay; Clade S follow-up
Reported Efficacy (%) FLuc E by item:
A number alone suffices; assume %.

Solved cases (5 shown):
> print(dat)
                                   molecule  result.value
1  O=C(NCCCc1ccccc1)C1CCN(C(=O)c2ncn3c2COC(c2ccccc2)C3)CC1 (stereo not drawn) [NCGC00449797-01]        -79.71
2  O=C(NCCC1=CCCCC1)C1CCN(C(=O)c2ncn3c2COC(c2ccc(Cl)cc2)C3)CC1 (stereo not drawn) [NCGC00449848-01]        -32.57
3  COc1ccc(CNC(=O)C2CCN(C(=O)c3ncn4c3COC(c3ccc(C)cc3)C4)CC2)cc1 (stereo not drawn) [NCGC00449887-01]        -38.46
4  Cc1cccc(CNC(=O)C2CCN(C(=O)c3ncn4c3COC(c3ccc(F)cc3)C4)CC2)c1 (stereo not drawn) [NCGC00449836-01]        -28.36
5  CC(CNC(=O)C1CCN(C(=O)c2ncn3c2COC(c2ccc(F)cc2)C3)CC1)c1ccccc1 (stereo not drawn) [NCGC00449827-01]        -13.06

Param item = O=C(NCc1ccccc1F)C1CCN(C(=O)c2ncn3c2COC(c2ccccc2)C3)CC1 (stereo not drawn) [NCGC00449783-01] ; retrieve measured Efficacy (%) FLuc E.
-77.35

What does the data say about its Efficacy (%) FLuc E? Entry: CC(C)c1ccc(NC(=O)C2CCN(C(=O)c3ncn4c3COC(c3ccccc3)C4)CC2)cc1 (stereo not drawn) [NCGC00449909-01]
-93.68

* * *

# tgt: ABL1-N-HiBiT kinase domain (Homo sapiens, UniProt P00519)
# Sequence (P00519 233-500): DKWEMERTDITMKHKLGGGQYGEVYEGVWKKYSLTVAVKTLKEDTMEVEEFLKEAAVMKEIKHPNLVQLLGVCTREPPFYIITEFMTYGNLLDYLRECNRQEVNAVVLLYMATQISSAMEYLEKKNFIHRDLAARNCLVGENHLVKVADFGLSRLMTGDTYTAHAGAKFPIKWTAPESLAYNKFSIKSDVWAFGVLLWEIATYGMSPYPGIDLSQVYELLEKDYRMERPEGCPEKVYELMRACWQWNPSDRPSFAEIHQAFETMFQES
# measurement notes: ABL1 peptide phosphorylation, Kinase-Glo Plus (KGP) assay, ABL1-N-HiBiT
# Assay type: biochemical
# Parameters: containing amino acid residues Asp233-Ser500; His10 (N); made in house; host or cells: E. coli BL21(DE3)
# experimental parameters: ABL1-N-HiBiT qHTS; average; unit inferred; read-out: ABL1 KGP Ave IC50
measured attribute: IC50

Below, each entry is followed by its recorded IC50 result.
> print(dat)
                                   molecule  measured.attribute  result.value
1  CCN1CCN(Cc2ccc(NC(=O)c3ccc(C)c(NC(=O)c4cncc(-c5cccs5)c4)c3)cc2C(F)(F)F)CC1 [ALW-II-41-27, reference compound]                IC50     0.0182 µM
2  Cc1cc(Nc2ncc3c(n2)N(C)C(=O)N(c2cc(NC(=O)c4cccc(C(F)(F)F)c4)ccc2C)C3)n(C)n1 [Pluripotin]                IC50      0.141 µM
3  O=c1c(O)c(-c2ccc(O)c(O)c2)oc2cc(O)cc(O)c12 [Quercetin]                IC50       5.88 µM

Fill in the recorded IC50 for this molecule, with ABL1-N-HiBiT kinase domain (Homo sapiens, UniProt P00519) as test system: C=CC(=O)N1CCC[C@@H](n2nc(-c3cccc(C(=O)Nc4ccc(C(C)C)c(C)c4)c3)c3c(N)ncnc32)C1 [PF 06465469]
8.17 µM
